Just for reference, patent US20060083680A1 is where these values come from.

Biological target: DAT (dopamine transporter) (Rattus norvegicus, UniProt P23977)
Sequence (P23977 whole entry): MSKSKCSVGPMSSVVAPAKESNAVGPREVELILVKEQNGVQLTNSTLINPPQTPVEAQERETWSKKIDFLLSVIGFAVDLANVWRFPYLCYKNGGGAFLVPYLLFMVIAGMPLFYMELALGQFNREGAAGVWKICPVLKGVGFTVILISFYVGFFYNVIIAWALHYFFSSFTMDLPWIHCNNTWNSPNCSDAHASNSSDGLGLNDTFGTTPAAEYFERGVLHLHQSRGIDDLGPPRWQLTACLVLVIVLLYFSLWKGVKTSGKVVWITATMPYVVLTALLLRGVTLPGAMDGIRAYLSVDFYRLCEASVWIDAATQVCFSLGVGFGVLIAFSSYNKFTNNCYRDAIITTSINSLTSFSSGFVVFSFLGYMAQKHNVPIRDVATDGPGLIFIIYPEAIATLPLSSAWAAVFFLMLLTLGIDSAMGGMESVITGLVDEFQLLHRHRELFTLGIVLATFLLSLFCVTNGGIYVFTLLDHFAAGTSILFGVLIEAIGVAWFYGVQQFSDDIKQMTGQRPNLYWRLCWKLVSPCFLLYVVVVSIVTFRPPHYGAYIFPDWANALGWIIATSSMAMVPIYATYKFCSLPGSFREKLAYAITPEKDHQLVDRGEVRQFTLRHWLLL
pKi: −log10 of the molar value.
PROPERTY: pKi

The cases that follow already have their pKi on record.
* CN(C)Cc1ccccc1Oc1ccc(I)cc1CO [Compound 2, reference compound] | < 6.00
* CN(C)Cc1ccccc1Oc1ccc(I)cc1N | 6.51
* CN(C)Cc1ccccc1Sc1ccc(C#N)cc1N [DASB, reference compound] | < 6.00

Test system DAT (dopamine transporter) (Rattus norvegicus, UniProt P23977); read-out pKi; what value for CN(C)Cc1ccccc1Cc1ccc(I)cc1N ?
< 6.00

Item: CN(C)Cc1ccccc1Sc1ccc(I)cc1CO [Compound 1, reference compound]
< 6.00

###

Target: NET (norepinephrine transporter) (Homo sapiens, UniProt P23975)
Sequence (P23975 whole entry): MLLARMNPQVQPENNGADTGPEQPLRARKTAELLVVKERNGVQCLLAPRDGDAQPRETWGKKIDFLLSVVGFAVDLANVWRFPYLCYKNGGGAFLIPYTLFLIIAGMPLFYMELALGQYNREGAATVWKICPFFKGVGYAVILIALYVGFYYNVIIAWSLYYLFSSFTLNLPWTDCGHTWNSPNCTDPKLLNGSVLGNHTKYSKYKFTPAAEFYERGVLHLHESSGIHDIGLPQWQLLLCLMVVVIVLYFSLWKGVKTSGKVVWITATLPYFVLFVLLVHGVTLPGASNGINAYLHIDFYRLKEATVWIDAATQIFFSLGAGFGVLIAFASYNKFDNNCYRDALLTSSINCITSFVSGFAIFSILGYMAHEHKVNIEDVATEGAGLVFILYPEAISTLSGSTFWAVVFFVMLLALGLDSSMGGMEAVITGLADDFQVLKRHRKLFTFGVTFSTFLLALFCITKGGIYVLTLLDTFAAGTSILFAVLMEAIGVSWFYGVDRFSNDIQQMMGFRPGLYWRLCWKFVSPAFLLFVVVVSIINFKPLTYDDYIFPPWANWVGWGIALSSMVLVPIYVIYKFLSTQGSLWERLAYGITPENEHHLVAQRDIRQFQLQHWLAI
Quick reference: Ki of the listed items.
Give the value, in units of nM, as a plain number.

• CN(C)Cc1ccccc1Sc1ccc(I)cc1CO [Compound 1, reference compound] = 234
• CN(C)Cc1ccccc1Oc1ccc(I)cc1CO [Compound 2, reference compound] = 20

Which Ki is listed for CN(C)Cc1ccccc1Cc1ccc(I)cc1N [Compound 5] ?
17

Item: CN(C)Cc1ccccc1Oc1ccc(I)cc1N [Compound 4]
286

###

Quick reference: pKi of the listed items.
Target: SERT (serotonin transporter) (Rattus norvegicus)
Construct: membrane homogenates
Sequence (P31652 whole entry): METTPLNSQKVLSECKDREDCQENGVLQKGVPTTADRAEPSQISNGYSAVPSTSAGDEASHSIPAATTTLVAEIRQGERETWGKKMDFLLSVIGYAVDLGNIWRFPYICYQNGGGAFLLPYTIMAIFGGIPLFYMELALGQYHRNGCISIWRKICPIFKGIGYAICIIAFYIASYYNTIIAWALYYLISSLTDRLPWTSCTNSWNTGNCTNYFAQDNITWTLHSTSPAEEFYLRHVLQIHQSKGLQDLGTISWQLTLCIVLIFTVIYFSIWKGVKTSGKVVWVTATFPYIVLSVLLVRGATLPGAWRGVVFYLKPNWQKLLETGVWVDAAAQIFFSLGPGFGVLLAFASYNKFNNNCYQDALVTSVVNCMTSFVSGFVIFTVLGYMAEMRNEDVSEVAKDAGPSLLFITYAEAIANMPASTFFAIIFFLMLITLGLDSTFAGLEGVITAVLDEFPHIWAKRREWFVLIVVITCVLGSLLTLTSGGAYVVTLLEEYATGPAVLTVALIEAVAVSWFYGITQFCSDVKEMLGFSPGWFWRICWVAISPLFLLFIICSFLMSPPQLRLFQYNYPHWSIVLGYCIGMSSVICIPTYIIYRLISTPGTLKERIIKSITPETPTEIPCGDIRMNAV
Test: In vitro binding assay, membranes of LLC-PK1 cells expressing SERT, [^125I]IDAM
Settings: LLC-PK1 cells expressing SERT; read-out: Ki SERT
Method: Preparation of membrane homogenates: LLC-PK1 cells from pig kidney permanently expressing DAT, NET and SERT, respectively (LLC-DAT, LLC-NET and LLC-SERT) were kindly provided by Dr. G. Rudnick at Yale University. These cells were grown to confluence as a monolayer on 15 cm petri dish as reported previously. […] Cells were then washed once with phosphate buffer saline (w/ Ca^2+ and Mg^2+) (Bio-Whittaker) and harvested with 10 mL PBS by scraping. […]
FYI, pKi means -log10 of a concentration in mol per litre.

* CN(C)Cc1ccccc1Sc1ccc(I)cc1CO [Compound 1, reference compound] | 10.01
* CN(C)Cc1ccccc1Sc1ccc(C#N)cc1N [DASB, reference compound] | 8.96

Now for a further compound.
Test system SERT (serotonin transporter) (Rattus norvegicus); read-out pKi; what value for CN(C)Cc1ccccc1Cc1ccc(I)cc1N ?
7.31
